Target: mouse BLyS protein (mouse, UniProt Q9WU72 69-309)
Sequence (Q9WU72 69-309): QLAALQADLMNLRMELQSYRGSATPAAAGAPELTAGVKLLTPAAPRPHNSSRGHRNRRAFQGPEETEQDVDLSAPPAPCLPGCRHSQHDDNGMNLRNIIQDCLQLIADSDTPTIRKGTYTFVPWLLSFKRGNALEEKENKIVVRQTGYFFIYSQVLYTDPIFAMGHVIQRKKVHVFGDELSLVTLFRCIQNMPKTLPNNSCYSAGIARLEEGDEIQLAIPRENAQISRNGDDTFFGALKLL
Assay: cell-based or functional assay
# maps each entry to its mouse B lymphocyte proliferation (OD450 nm), antibody 0.00128 nM
# value in OD450 nm; strip the unit string

These solved cases illustrate the format of a correct answer.
L9G7 (antibody, V domains shown, From a human naive scFv phage library; also called human BLyS antibody L9G7) VH: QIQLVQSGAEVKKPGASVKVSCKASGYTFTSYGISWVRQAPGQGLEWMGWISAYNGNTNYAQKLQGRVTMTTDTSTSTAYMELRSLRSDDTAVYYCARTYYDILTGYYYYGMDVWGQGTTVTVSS VL: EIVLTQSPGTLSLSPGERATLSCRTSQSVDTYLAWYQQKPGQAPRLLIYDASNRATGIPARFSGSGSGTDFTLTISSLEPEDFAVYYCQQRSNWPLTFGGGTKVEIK has a reported mouse B lymphocyte proliferation (OD450 nm), antibody 0.00128 nM of 2480

For this binder ( L1D12 (antibody, V domains shown, From a human naive scFv phage library; also called human BLyS antibody L1D12; LID12) VH: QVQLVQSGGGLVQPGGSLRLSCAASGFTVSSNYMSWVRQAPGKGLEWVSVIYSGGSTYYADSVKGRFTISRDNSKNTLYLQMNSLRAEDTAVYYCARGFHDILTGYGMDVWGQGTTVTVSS VL: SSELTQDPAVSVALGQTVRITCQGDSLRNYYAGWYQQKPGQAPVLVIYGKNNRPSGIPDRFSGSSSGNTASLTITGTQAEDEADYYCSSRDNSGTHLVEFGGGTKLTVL ), measured mouse B lymphocyte proliferation (OD450 nm), antibody 0.00128 nM is 2610

Others:
// field: mouse B lymphocyte proliferation (OD450 nm), antibody 0.00128 nM; key: 67A2E1D10 (antibody, V domains shown, Mouse hybridoma monoclonal antibody purified on Protein G) VH: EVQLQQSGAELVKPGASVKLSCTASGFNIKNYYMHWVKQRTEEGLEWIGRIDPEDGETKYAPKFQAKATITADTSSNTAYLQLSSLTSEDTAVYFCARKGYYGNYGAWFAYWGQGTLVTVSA VL: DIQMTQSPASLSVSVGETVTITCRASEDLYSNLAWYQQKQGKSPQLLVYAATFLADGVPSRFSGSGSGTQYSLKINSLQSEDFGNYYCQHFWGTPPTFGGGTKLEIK ; value = 2200

Sample 97E7B3F2 (antibody, V domains shown, Mouse hybridoma monoclonal antibody purified on Protein G) VH: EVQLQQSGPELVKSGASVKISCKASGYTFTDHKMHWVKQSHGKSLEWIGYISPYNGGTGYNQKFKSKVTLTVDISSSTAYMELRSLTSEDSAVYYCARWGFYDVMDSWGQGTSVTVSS VL: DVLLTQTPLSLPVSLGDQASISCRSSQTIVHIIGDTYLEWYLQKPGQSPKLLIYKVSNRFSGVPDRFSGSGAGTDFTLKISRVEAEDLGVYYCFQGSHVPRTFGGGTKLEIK ; mouse B lymphocyte proliferation (OD450 nm), antibody 0.00128 nM observed: 2150

# binder 111D10D6G3 (antibody, V domains shown, Mouse hybridoma monoclonal antibody purified on Protein G) VH: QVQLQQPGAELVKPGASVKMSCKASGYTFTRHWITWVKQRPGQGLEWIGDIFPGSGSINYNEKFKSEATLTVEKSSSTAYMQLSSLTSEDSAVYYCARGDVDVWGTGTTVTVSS VL: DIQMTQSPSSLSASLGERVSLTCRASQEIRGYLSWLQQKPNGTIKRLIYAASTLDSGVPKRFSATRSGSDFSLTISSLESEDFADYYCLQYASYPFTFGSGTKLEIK ; its mouse B lymphocyte proliferation (OD450 nm), antibody 0.00128 nM = 2150
